Target: T1, secretory phospholipase A2 (sPLA2) (Homo sapiens, UniProt P14555 P14555:21-144)
T1 sequence: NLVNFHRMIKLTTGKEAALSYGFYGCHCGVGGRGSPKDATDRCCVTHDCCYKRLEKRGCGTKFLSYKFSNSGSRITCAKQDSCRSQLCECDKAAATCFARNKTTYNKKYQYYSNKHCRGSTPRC
Assay: filter; TBSC, 37 C
Settings: tags: supplied by Eli Lilly
measured_attribute: Kd (nM)
Kindly provide the numeric value in nM only, without the unit symbol.

In the examples that follow, each entry is paired with its recorded Kd.
binder | result
NN30 (ssRNA, 2'-NH2 all C and U) RNA: GGGAAAAGCGAAUCAUACACAAGAGCCAGCGAGUGUCGACAGUGUGGGUGGAAGUGACGGGAGGAUUGGAGACGCUCCGCCAGAGACCAACCGAGAA | 23
NN40 (ssRNA, 2'-NH2 all C and U) RNA: GGGAAAAGCGAAUCAUACACAAGACCCCUUGAGCUCGUGACGCAGGAGGAGGGCCGAGGAGGAAAGUCGUCACAGCUCCGCCAGAGACCAACCGAGAA | 31

Turning now to a further record.
Prompt: Reported Kd for NS7 (ssRNA, 2'-NH2 all C and U) RNA: GGGAGGACGAUGCGGAGGAAAUGAAGUAGUGAGAGUAUAACAUGAUUAUGAAUACGUGAUGUGGCCAGACGACUCGCCCGA : what is it?
Response: 18
